# target or test system: PRKAA1 (human) (UniProt Q13131)
# Sequence (Q13131 whole entry, looked up): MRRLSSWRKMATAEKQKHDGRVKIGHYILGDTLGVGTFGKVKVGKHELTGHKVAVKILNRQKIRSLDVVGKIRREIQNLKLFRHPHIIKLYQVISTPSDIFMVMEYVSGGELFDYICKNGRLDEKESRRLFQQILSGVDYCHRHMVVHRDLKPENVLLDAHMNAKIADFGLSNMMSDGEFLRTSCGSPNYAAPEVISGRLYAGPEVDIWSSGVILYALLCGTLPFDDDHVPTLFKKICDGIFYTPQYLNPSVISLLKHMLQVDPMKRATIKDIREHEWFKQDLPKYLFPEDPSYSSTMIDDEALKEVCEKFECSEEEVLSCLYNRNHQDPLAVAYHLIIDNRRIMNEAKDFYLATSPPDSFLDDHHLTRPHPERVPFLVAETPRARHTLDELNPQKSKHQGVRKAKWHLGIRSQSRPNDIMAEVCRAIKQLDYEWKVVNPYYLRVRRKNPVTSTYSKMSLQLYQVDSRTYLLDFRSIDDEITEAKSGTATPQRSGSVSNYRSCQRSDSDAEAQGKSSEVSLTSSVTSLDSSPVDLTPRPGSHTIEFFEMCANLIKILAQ
# method notes: KINOMEscan competition binding
# condition label: compound 10.0 µM
Each item that follows carries a reported kinase still bound, per cent of control.
Your answer is read as %, so omit the unit and give the number.

Example entries and their recorded answers appear below.
Consider O=C1Nc2ccc(I)cc2/C1=C/c1cc(Br)c(O)c(Br)c1 . Its measured kinase still bound, per cent of control is 100

Consider Cn1c(=O)n(-c2ccc(C(C)(C)C#N)cc2)c2c3cc(-c4cnc5ccccc5c4)ccc3ncc21 . Its measured kinase still bound, per cent of control is 100

Consider O=C(NC1CC1)c1cccc(-c2ccc3c(NC(=O)C4CC4)n[nH]c3c2)c1 . Its measured kinase still bound, per cent of control is 60

Consider Cc1ccc2nc(NCCN)c3ncc(C)n3c2c1 . Its measured kinase still bound, per cent of control is 82

---
Consider O=C(NOC[C@H](O)CO)c1ccc(F)c(F)c1Nc1ccc(I)cc1F . Its measured kinase still bound, per cent of control is 100
